Assay: Octanol/water partition coefficients
Format: physicochemical
Details: octanol/pH 7.4 isotonic phosphate buffer, room temperature; read-out: Experimental log P
measured-parameter: logP at 24 h

O=C1CC[C@@]2(O)[C@H]3Cc4ccc(O)c5c4[C@@]2(CCN3CC2CC2)[C@H]1O5 [NTX, Naltrexone] : 0.67

----------
Assay: Solubilities in light mineral oil and pH 7.4 isotonic phosphate buffer
Format: physicochemical
Conditions: oil or lipid, thermodynamic from solid; light mineral oil, 32° C., 48 hours equilibration; read-out: Light Mineral Oil Solubility 32° C.
measured-parameter: solubility at 48 h (µM)

O=C1CC[C@@]2(O)[C@H]3Cc4ccc(O)c5c4[C@@]2(CCN3CC2CC2)[C@H]1O5 [NTX, Naltrexone] : 258

----------
Test: Solubilities in light mineral oil and pH 7.4 isotonic phosphate buffer
Type: physicochemical
Settings: aqueous buffer, thermodynamic from solid; pH 7.4 isotonic phosphate buffer, 32° C., 48 hours equilibration; read-out: Phosphate Buffer Solubility pH 7.4 32° C.
measured-parameter: solubility at 48 h

O=C1CC[C@@]2(O)[C@H]3Cc4ccc(O)c5c4[C@@]2(CCN3CC2CC2)[C@H]1O5 [NTX, Naltrexone] : 15.2 mM
